Hey, just so you know, these numbers are from patent US20210395344A1.

Overview of reported ELISA fold over background across a group of binders:
- assay_system: T1, COVID S1 RBM Fc fusion (Antigen 2) (SARS-CoV-2, UniProt P0DTC2 437-508)
- T1 construct: domain: RBM
- measurement_description: phage ELISA
Number in fold over background, nothing else.

Here are 3 binders together with their reported answers.
binder="1-3 (antibody, V domains shown, also called variant 1-3) VH: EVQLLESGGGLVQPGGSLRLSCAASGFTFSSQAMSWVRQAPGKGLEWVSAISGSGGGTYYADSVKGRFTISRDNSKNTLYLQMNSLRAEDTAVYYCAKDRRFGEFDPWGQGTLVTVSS VL: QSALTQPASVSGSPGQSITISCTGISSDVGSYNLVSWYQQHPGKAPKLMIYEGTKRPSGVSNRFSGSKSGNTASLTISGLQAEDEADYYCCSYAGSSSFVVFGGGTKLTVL" reported_metric="ELISA fold over background" reported_value=1.5
binder="1-24 (antibody, V domains shown, also called variant 1-24) VH: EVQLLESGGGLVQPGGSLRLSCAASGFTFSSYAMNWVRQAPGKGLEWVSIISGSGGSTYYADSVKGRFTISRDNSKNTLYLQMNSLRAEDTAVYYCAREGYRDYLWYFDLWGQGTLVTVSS VL: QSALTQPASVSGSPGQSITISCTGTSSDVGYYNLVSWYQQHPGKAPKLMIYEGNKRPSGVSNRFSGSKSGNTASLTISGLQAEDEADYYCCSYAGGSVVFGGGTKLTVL" reported_metric="ELISA fold over background" reported_value=1.3
binder="1-20 (antibody, V domains shown, also called variant 1-20) VH: EVQLLESGGGLVQPGGSLRLSCAASGITFSSYAMSWVRQAPGKGLEWVSGISGSGGSTYYADSVKGRFTISRDNSKNTLYLQMNSLRAEDTAVYYCANHGSGTIFGVVIAKYYFDYWGQGTLVTVSS VL: QSALTQPASVSGSPGQSITISCTGTSSDVGHYNLVSWYQQHPGKAPKLMIYEGTKRPSGVSNRFSGSKSGNTASLTISGLQAEDEADYYCCSYAGSSSFVVFGGGTKLTVL" reported_metric="ELISA fold over background" reported_value=0.8

Alright, here's another binder for you.
Respond only with ELISA fold over background recorded for 1-42 (antibody, V domains shown, also called variant 1-42) VH: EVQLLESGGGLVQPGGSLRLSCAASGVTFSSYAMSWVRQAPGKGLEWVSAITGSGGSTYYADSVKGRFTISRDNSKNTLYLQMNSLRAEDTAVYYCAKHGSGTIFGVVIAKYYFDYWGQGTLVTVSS VL: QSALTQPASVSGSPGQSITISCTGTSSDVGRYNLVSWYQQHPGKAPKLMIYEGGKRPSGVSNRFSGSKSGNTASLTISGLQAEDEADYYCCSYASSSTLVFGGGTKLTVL
1
